- Test description: Stat Signaling Pathway (AID 446);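 also: ME-180 cervical cancer cells given 40 pM IL-6 alongside compound; SIE-controlled beta-lactamase reporter measured as 460/530 nm FRET emission ratio; % is scaled to controls: 0 for no effect and ±100 for the full control effect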
- Settings: ME-180 (cervical carcinoma) SIE beta-lactamase reporter, IL-6 stimulated, 5 h; at 7.69 µM (top of the series) unless noted
- Experimental: NCGC Assay Overview: The IL-6/STAT signaling pathway was assayed in ME-180 cervical carcinoma cells by a beta-lactamase reporter gene controlled by a STAT Inducible Element (SIE). This reporter is induced by IL-6 at 40 pM AC50 and inhibited by the pan JAK inhibitor, 2-(1,1-Dimethylethyl)-9-fluoro-3,6-dihydro-7H-benz[h]-imidaz[4,5-f]isoquinolin-7-one, at approximately 10 nM AC50. Plated cells were incubated overnight and on the following day, stimulated with 40 pM IL-6 for 5 hrs. […]
Inconclusive results are not listed. Activity calls are given as the source filed them. Calls follow the shape of the dose curve; as a rule, active = well fitted curve in either direction with a large enough effect (not every such curve was filed as active); inconclusive = small, poorly fitted or top-dose-only effect, or another doubt; inactive = flat fitted curve, though single readings scatter.
Assay metric: activity, negative = inhibition

Some molecules with known activity, negative = inhibition results, for comparison:
N#CS.N=C=S.N=C=S.[Cu].[NH2-].[NH2-].[NH2-].[NH2-].c1ccc2ncccc2c1 :: -4.61% (inactive)
ClCC[N+]12CC[N+](CCCl)(CC1)C2 (tested in a mixture with another compound) :: 3.41% (inactive)
CN(C)CS/C(N)=N/[C@H](O)C(Cl)(Cl)Cl :: 3.46% (inactive)
C#CCN[C@@H](C)Cc1ccccc1 :: -23.9% [at 38 µM] (inactive)
CC(=O)O[C@H]1CC[C@@]2(C)[C@@H](CC[C@H]3[C@H]2CC(=O)[C@]2(C)[C@@H]3C[C@@H](N3CC3)[C@H]2C(C)=O)C1 :: 5.02% (inactive)
CC(C)c1ccc(C(O)(C(=O)O)c2ccc(C(C)C)cc2)cc1 :: 4.5% (inactive)
COc1cc2c(cc1OC)[C@@]13CCN4C=C5CCO[C@H]6CC(=O)N2[C@@H]1[C@@H]6[C@H]5C[C@H]43 :: 2.38% (inactive)
CC(C)(C)C(=O)CP(=O)(O)O :: -5.75% (inactive)

// activity, negative = inhibition value for CCC1=C(C[C@H]2NCCc3cc(OC)c(OC)cc32)C[C@H]2c3ccccc3CCN2C1 : 8.03% (inactive)

* * *

- Target or system: Retinoic acid receptor RXR-alpha (Homo sapiens)
- Test description: qHTS assay for small molecule antagonists of retinoid X receptor alpha signaling (AID 588546);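 also: cells stimulated with 9-cis-retinoic acid as agonist; % is scaled to controls: 0 for no effect and ±100 for the full control effect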
- Settings: HEK293T RXRa-UAS-bla, beta-lactamase ratio, antagonist mode
Records with an inconclusive call do not appear.
Assay metric: max response (%)
One number for each entry, in %.

C=CCBr :: 13.2

Provide max response values for the following items, in order.
1. Cc1cc(C)cc(OP(=O)(Oc2cc(C)cc(C)c2)Oc2cc(C)cc(C)c2)c1
2. C=CC#N
3. CC(=O)CCC(C)=O
4. ClCC(Cl)Cl

[28.5, 19, 0.643, 7.8]

* * *

- Test description: Cell Viability - LYMP2-023 (AID 975);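 also: cells exposed to compound for 24 hours at 37 °C; nearly all actives have a fitted effect of over 55% in size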
- Settings: LYMP2-023 lymphoblastoid cell viability; series mostly up to 92.2 µM
Records with an inconclusive call do not appear. Calls of active or inactive are those of the source. The call rests on the fitted dose curve; in most records, active means well fitted cell-killing curve with a large enough effect; inconclusive means small, poorly fitted or top-dose-only effect; inactive means flat fitted curve, though single readings scatter.
Lab note: assign the record to one of active, inactive

CCCCCOC(=O)c1ccccc1C(=O)OCCCCC :: inactive
ClCC(Cl)Cl :: inactive
c1ccc(NNc2ccccc2)cc1 :: inactive
CCCCC(CC)COC(=O)c1ccc(C(=O)OCC(CC)CCCC)c(C(=O)OCC(CC)CCCC)c1 (configuration not stated) :: inactive
Oc1ccc(Cl)c(Cl)c1 :: inactive
Clc1ccc(C(Cl)(Cl)Cl)c(Cl)c1 :: inactive
COc1ccccc1N :: inactive
OC[P+](CO)(CO)CO :: active
CSSC :: inactive
S=c1[nH]c2ccccc2[nH]1 :: inactive

Hey, what did the test say about Nc1cc(Cl)ccc1O ?
inactive

What call does the record list for N#CCCCCC#N ?
inactive
